Kindly state kon for each of the entries shown.
Target: T1, human VEGF (human, UniProt P15692 207-395, biotinylated (site not stated))
T1 construct: Biotinylated human VEGF generated internally; also called hVEGF; hVEGF-biotin
T1 sequence: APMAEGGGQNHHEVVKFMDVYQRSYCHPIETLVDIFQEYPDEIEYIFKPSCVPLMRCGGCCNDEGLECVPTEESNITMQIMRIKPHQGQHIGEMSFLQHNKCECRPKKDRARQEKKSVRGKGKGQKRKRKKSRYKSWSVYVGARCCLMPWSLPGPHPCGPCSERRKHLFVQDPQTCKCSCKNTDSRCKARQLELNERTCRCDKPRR
Assay: Biacore SPR, hVEGF
Dear colleague, please send the value followed by its unit.

### Prompt Please report the recorded kon for NVS4 heavy chain variant D57N (Fab, V domains shown, CDR variant of NVS4) VH: EVQLVESGGGLVQPGGSLRLSCTASGFSLTDYYYMTWVRQAPGKGLEWVGFIDPDDNPYYATWAKGRFTISRDNSKNTLYLQMNSLRAEDTAVYYCAGGDHNSGWGLDIWGQGTLVTVSS VL: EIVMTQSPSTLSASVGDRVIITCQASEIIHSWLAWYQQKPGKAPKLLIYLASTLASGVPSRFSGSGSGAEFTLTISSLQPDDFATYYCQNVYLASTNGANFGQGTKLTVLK .
### Response 1.06e+07 M⁻¹ s⁻¹

### Prompt Please report the recorded kon for NVS4 heavy chain variant D108Q (Fab, V domains shown, CDR variant of NVS4) VH: EVQLVESGGGLVQPGGSLRLSCTASGFSLTDYYYMTWVRQAPGKGLEWVGFIDPDDDPYYATWAKGRFTISRDNSKNTLYLQMNSLRAEDTAVYYCAGGDHNSGWGLQIWGQGTLVTVSS VL: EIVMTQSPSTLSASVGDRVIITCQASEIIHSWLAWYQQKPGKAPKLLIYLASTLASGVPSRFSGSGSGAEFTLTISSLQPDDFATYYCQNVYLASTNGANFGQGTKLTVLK .
### Response 6.8e+06 M⁻¹ s⁻¹
